tgt: Flt-3 (baculovirus expressed human Flt-3 kinase domain R571-S993) (Homo sapiens)
Construct: human Flt-3 kinase domain R571-S993; host or cells: baculovirus expression
Sequence (P36888 571-993): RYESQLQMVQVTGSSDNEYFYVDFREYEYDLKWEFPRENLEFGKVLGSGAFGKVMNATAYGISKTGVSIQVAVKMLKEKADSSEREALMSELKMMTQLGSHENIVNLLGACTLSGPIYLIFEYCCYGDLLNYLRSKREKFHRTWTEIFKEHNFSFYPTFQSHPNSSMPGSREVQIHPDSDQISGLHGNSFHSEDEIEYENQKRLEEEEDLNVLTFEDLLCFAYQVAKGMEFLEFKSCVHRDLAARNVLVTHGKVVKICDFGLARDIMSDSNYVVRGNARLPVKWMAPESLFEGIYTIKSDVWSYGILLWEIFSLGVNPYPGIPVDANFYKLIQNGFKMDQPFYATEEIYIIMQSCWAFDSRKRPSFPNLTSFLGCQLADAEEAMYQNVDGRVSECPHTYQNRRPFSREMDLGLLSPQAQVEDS
testName: biochemical
experimentalSetup: read-out: flt3 IC50
pIC50: −log10 of the molar value.
Listing of recorded pIC50 by entry.

Sample answers from the record:
{"columns": ["compound", "readoutKind", "recordedResult"],
 "data": [
  ["COc1cc2c(Oc3ccc(NC(=O)C(=O)N4CCC(Cc5ccccc5)CC4)cc3F)ccnc2cc1OCC1CCNCC1", "pIC50", "> 7.30"],
  ["COc1cc2c(Oc3ccc(NC(=O)C(=O)NCC4CC4)cc3F)ccnc2cc1OCC1CCNCC1", "pIC50", "6.30 to 7.30"],
  ["COc1cc2nccc(Oc3cc(F)c(NC(=O)C4(C(=O)Nc5ccc(F)cc5)CC4)cc3F)c2cc1OC", "pIC50", "> 7.30"],
  ["CCN(CC)CCCOc1cc2c(Oc3ccc(NC(=O)C4(C(=O)Nc5ccc(F)cc5)CC4)cc3F)ccnc2cc1OC", "pIC50", "> 7.30"],
  ["COc1cc2nccc(Oc3ccc(NC(=O)C4(C(=O)Nc5ccccc5CN5CCCC5)CC4)cc3)c2cc1OC", "pIC50", "6.30 to 7.30"],
  ["COc1cc2nccc(Oc3cc(Cl)c(NC(=O)C4(C(=O)Nc5ccc(F)cc5)CC4)cc3F)c2cc1OC", "pIC50", "5.30 to 6.30"]
]}

Here is another compound to look at.
Q. Recall and state the measured pIC50 for CCN(CC)CCCOc1cc2ncnc(Oc3ccc(NC(=O)[C@]4(C(=O)Nc5ccc(F)cc5)C[C@H]4C)cc3F)c2cc1OC .
A. > 7.30

====

tgt: KDR (baculovirus expressed human KDR kinase domain D807-V1356) (Homo sapiens, UniProt P35968)
Construct: human KDR kinase domain D807-V1356; host or cells: baculovirus expression
Sequence (P35968 807-1356): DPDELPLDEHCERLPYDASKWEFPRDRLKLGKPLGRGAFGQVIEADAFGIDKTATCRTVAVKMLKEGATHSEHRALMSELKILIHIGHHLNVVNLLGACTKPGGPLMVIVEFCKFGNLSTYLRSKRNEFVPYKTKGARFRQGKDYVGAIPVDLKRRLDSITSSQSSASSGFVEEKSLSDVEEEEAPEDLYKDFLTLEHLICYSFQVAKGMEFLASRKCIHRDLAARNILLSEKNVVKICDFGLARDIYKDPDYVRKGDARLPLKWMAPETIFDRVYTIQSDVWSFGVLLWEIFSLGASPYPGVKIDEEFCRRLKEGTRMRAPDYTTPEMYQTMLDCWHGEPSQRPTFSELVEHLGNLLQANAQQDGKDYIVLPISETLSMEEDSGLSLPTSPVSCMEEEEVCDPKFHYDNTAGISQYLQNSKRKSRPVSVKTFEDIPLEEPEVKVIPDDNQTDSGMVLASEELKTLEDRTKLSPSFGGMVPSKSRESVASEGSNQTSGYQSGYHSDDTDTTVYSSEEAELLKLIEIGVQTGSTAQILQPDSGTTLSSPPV
testName: biochemical
Listing of recorded IC50 by entry.

Sample answers from the record:
{"columns": ["compound", "recordedResult"],
 "data": [
  ["COc1cc2nccc(Oc3ccc(NC(=O)C4(C(=O)NCCN5CCOCC5)CC4)cc3)c2cc1OC [Example 393]", "> 5000 nM"],
  ["COc1cc2nccc(Oc3ccc(NC(=O)C4(C(=O)Nc5cccc(CN6CCOCC6)c5)CC4)cc3)c2cc1OC [Example 396]", "< 50 nM"],
  ["COc1cc2c(Oc3ccc(NC(=O)[C@]4(C(=O)Nc5ccc(F)cc5)C[C@H]4C)cc3F)ccnc2cc1OCCCN1CCN(C(=O)OC(C)(C)C)CC1 [Example 351]", "< 50 nM"]
]}

Q. Recall and state the measured IC50 for COc1cc2c(Oc3ccc(NC(=O)C4(C(=O)Nc5ccc(F)cc5)CC4)cc3F)ncnc2cc1OCCCN1CCOCC1 [Example 315] .
A. < 50 nM

Q. Recall and state the measured IC50 for COc1cc2c(Oc3ccc(NC(=O)[C@@]4(C(=O)Nc5ccc(F)cc5)[C@H](C)[C@@H]4C)cc3F)ccnc2cc1OCCCN1CCOCC1 [Example 365] .
A. 50 to 500 nM

Q. Recall and state the measured IC50 for COc1cc2nccc(Oc3ncc(NC(=O)C4(C(=O)Nc5ccccc5)CC4)cc3Cl)c2cc1OC [Example 305] .
A. 50 to 500 nM

Q. Recall and state the measured IC50 for COc1cc2nccc(Oc3ccc(NC(=O)C4(C(=O)Nc5ccccc5CN5CCCCC5)CC4)cc3)c2cc1OC [Example 394] .
A. > 5000 nM

Q. Recall and state the measured IC50 for CCN(CC)CCOc1cc2ncnc(Oc3ccc(NC(=O)C4(C(=O)Nc5ccc(F)cc5)CC4(C)C)cc3F)c2cc1OC (stereo not drawn) [Example 378] .
A. 50 to 500 nM

Q. Recall and state the measured IC50 for CCN(CC)CCOc1cc2nccc(Oc3ccc(NC(=O)C4(C(=O)Nc5ccc(F)cc5)CC4)cc3F)c2cc1OC [Example 304] .
A. < 50 nM

Q. Recall and state the measured IC50 for COc1cc2c(Oc3ccc(NC(=O)[C@]4(C(=O)Nc5ccc(F)cc5)C[C@H]4C)cc3F)ccnc2cc1OCCCN1CCNCC1 [Example 356] .
A. < 50 nM

Q. Recall and state the measured IC50 for COc1cc2c(Oc3ccc(NC(=O)C4(C(=O)Nc5ccc(F)cc5)CC4)cc3F)ccnc2cc1OCCCN1CCN(C(C)=O)CC1 [Example 350] .
A. < 50 nM

These entries and their values trace back to patent US8476298B2.
